Assay System: cdk5/p25 (Homo sapiens)
Test Description: Initial velocity kinetic analysis of cdk5/p25-catalyzed H1P phosphorylation
Assay type: biochemical
Measurement Setup: KATP (KMgATP), 2.5 mM free Mg^2+
Measure Name: pKd
Numbers only, as −log10 of the molar value.

Briefly, pKd measured for Nc1ncnc2c1ncn2[C@@H]1O[C@H](COP(=O)(O)OP(=O)(O)OP(=O)(O)O)[C@@H](O)[C@H]1O [ATP, Adenosine 5’-triphosphate] : 5.21

----------
Assay System: cdk5/p25 (Homo sapiens, UniProt Q00535)
Sequence (Q00535 whole entry, species assumed): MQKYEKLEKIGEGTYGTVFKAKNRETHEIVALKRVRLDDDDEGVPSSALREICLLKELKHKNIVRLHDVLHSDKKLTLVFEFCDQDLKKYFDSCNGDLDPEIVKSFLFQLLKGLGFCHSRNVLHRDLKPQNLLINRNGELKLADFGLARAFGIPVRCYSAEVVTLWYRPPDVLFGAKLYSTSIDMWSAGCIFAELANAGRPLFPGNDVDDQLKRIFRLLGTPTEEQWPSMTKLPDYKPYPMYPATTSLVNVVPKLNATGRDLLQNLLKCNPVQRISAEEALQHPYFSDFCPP
Sequence (Q15078 99-307 partner limits assumed, species assumed): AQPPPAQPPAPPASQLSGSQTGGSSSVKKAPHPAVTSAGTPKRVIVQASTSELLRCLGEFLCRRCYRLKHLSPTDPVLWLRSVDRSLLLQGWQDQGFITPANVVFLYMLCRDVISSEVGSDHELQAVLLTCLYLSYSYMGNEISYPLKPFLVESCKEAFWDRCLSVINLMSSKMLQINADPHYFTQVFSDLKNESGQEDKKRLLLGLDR
Test Description: Initial velocity kinetic analysis of cdk5/p25-catalyzed H1P phosphorylation
Assay type: biochemical
Measurement Setup: read-out: KATP (KMgATP); 2.5 mM free Mg^2+
Measure Name: Kd (µM)
Numbers only, in µM.

Briefly, Kd measured for Nc1ncnc2c1ncn2[C@@H]1O[C@H](COP(=O)(O)OP(=O)([O-])OP(=O)([O-])O)[C@@H](O)[C@H]1O.[Mg+2] [MgATP] : 6.1

----------
Assay System: cdk5/p25 (Homo sapiens, UniProt Q00535)
Test Description: Initial velocity kinetic analysis of cdk5/p25-catalyzed H1P phosphorylation
Assay type: biochemical
Measurement Setup: read-out: KATP (KMgATP); 0.2 mM free Mg^2+
Measure Name: pKd
Give bare numbers, as −log10 of the molar value.

Briefly, pKd measured for `Nc1ncnc2c1ncn2[C@@H]1O[C@H](COP(=O)(O)OP(=O)([O-])OP(=O)([O-])O)[C@@H](O)[C@H]1O.[Mg+2]` : 4.22

Origin of the recorded values: paper PMC2921628
